target: recombinant human GM-CSF protein (human, UniProt P04141 18-144); experiment: ELISA
Sequence (P04141 18-144): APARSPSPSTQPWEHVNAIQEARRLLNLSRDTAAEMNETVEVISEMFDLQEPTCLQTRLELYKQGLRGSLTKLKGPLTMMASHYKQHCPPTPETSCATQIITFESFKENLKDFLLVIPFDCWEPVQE
Let's look at some binders and their measured EC50.
# output: bare number, implied unit pM

Hu23F4-24 (antibody, V domains shown) VH: EVQLVQSGAEVKKPGASVKVSCKASGYTFTSHYLHWVRQAPGQGLEWMGWIFPGDDKTKYNEKFKGRVTMTSDTSISTAYMELSRLRSDDTAVYYCARGTKYLNWNFDVWGQGTTVTVSS VL: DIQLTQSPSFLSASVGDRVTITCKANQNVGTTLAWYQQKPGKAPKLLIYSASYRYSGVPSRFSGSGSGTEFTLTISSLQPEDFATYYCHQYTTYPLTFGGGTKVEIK
90.8
Hu23F4-35 (antibody, V domains shown) VH: EVQLVQSGAEVKKPGASVKVSCKASGYTFTSHYLHWVRQAPGQGLEWIGWIFPGDDKTKYNEKFKGRATLTSDTSISTAYMELSRLRSDDTAVYYCARGTKYLNWNFDVWGQGTTVTVSS VL: DIQLTQSPSFLSASVGDRVTITCKANQNVGTTLAWYQQKPGKSPKALIYSASYRYSGVPDRFSGSGSGTDFTLTISSLQPEDFATYFCHQYTTYPLTFGGGTKVEIK
62.4
Hu23F4-37 (antibody, V domains shown) VH: EVQLVQSGAEVKKPGASVKVSCKASDYTLTSHYLHWVRQAPGQGLEWIGWIFPGDDKTKYNEKFKGRATLTSDTSISTAYMELSRLRSDDTAVYYCARGTKYLNWNFDVWGQGTTVTVSS VL: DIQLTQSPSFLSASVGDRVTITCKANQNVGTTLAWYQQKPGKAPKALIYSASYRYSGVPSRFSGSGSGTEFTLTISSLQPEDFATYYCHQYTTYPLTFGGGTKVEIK
127
Hu23F4-34 (antibody, V domains shown) VH: EVQLVQSGAEVKKPGASVKVSCKASGYTFTSHYLHWVRQAPGQGLEWIGWIFPGDDKTKYNEKFKGRATLTSDTSISTAYMELSRLRSDDTAVYYCARGTKYLNWNFDVWGQGTTVTVSS VL: DIQLTQSPSFLSASVGDRVTITCKANQNVGTTLAWYQQKPGKAPKALIYSASYRYSGVPDRFSGSGSGTDFTLTISSLQPEDFATYYCHQYTTYPLTFGGGTKVEIK
97.7

For the next question, use this binder.
Prompt: Give the value of EC50 reported for the following: Hu23F4-30 (antibody, V domains shown) VH: EVQLVQSGAEVKKPGASVKVSCKASGYTFTSHYLHWVRQAPGQGLEWMGWIFPGDDKTKYNEKFKGRVTLTSDTSISTAYMELSRLRSDDTAVYYCARGTKYLNWNFDVWGQGTTVTVSS VL: DIQLTQSPSFLSASVGDRVTITCKANQNVGTTLAWYQQKPGKAPKALIYSASYRYSGVPDRFSGSGSGTDFTLTISSLQPEDFATYYCHQYTTYPLTFGGGTKVEIK
Response: 41.1
